Tested on: HOP-62 NSCLC
TEST_SUMMARY: NCI tumour cell line growth inhibition, 48 h
Use 3 µM as the dividing line for TGI, with the line itself on the YES side and lower values as NO.

- COMPOUND: "C/C(=N/O)c1ccc2c(c1)C(=NO)c1cc(/C(C)=N/O)ccc1-2"
  CATEGORY: "YES"

Identify whether the reported TGI of the following compound is 3 µM or greater: COC(=O)n1c(C[P+](c2ccccc2)(c2ccccc2)c2ccccc2)cc2ccccc21
YES

Reported TGI at or above 3 µM? OC(c1cc(-c2ccccc2)nc2c1ccc1ccccc12)C1CCCCN1 (configuration not stated)
YES

Confirm if TGI reported for the compound COc1ccc(/C=C/C(=O)C(C)(C)Br)cc1 is 3 µM or above.
YES

Quick check, TGI >= 3 µM? O=C(Cc1ccc(/C=C/C(=O)c2ncc[nH]2)cc1)Nc1ccc(C(F)(F)F)cc1
YES

In plain terms: is recorded TGI at least 3 µM for C/C(=N\Nc1ccccc1)C(CN(C)C)C(c1ccccc1)c1c(O)c2ccccc2oc1=O (configuration not stated) ?
YES

Is the recorded value of TGI equal to or greater than 3 µM for this compound? Oc1[nH]c2ccccc2c1/C=c1/cc2c(c(-c3ccc(C(F)(F)F)cc3)n1)=Nc1ccccc1-2
YES

----------
System: K-562 leukemia
TEST_SUMMARY: NCI tumour cell line growth inhibition, 48 h; in the data active = GI50 below about 0.43 µM; inactive = the rest
Bench note: report the call from active, inactive

Answered cases to consult:
- MOLECULE: "O=C(Nc1ccccc1O)c1ccc(CNC(=O)c2ccsc2Nc2ccnc(C(F)(F)F)c2)cc1"
  CATEGORY: "inactive"
- MOLECULE: "CN(C)C/C=C/C(=O)Nc1ccc(C(=O)N2CCC[C@@H](Nc3ncc(Cl)c(-c4c[nH]c5ccccc45)n3)C2)cc1"
  CATEGORY: "active"
- MOLECULE: "Cc1ccc(/C=C2\\CNC/C(=C\\c3ccc(C)cc3)C2=O)cc1"
  CATEGORY: "inactive"
- MOLECULE: "c1cnc2[nH]cc(-c3csc(-c4cn(CCCN5CCCCC5)c5ccccc45)n3)c2c1"
  CATEGORY: "inactive"

Just curious, what result did COc1ccc2c(c1)nc1n2C(c2ccc(F)cc2)SC1 (stereo not given) get here?
inactive

----------
Tested on: LOX IMVI melanoma
TEST_SUMMARY: NCI tumour cell line growth inhibition, 48 h
REPORTED_METRIC: TGI

Some compounds with known TGI results, for comparison:
- COMPOUND: "CC(C)(CO)N=Cc1ccccc1[O-].CC(C)(CO)N=Cc1ccccc1[O-].[Co+2]"
  REPORTED_METRIC: "TGI"
  OBSERVED_RESULT: "> 63.1 µM"
- COMPOUND: "O=C(CCN1CCCC1)Nc1ccc2c(Nc3ccccc3)c3ccccc3nc2c1"
  REPORTED_METRIC: "TGI"
  OBSERVED_RESULT: "1.93 µM"

Quick note, TGI for Cc1ccccc1NC(=O)C(=O)CC(=O)c1ccc([N+](=O)[O-])cc1 landed at > 100 µM

Lab note: C/C(=N/NC(=O)CC(=O)N(C(=O)c1ccccc1Cl)c1ccc(C)cc1)c1cc2ccccc2oc1=O gave TGI of > 100 µM

// field: TGI; key: CC12CC(c3ccccc3O1)C(C(=O)Nc1cccc(F)c1)C(=O)N2 (stereo unspecified) ; value = > 100 µM

Documented TGI of COC1=CC(=O)C2=C(C1=O)[C@H]1CC[C@]3(C)[C@@H](OC(C)=O)CC[C@H]3[C@@H]1CC2 : 36.7 µM

Lab note: measured TGI of COc1ccc(/C=C2\CCC(CNc3ccc(Br)cc3)C2=O)cc1 (stereo unspecified) was > 100 µM

Entry CC(=O)CC1(C)OC(N)=C(C#N)C1(C#N)C#N (stereo unspecified) — recorded TGI = > 100 µM

Field TGI (entry Cc1ccc(-n2c3c(c4c(CN5CCOCC5)c(O)ccc42)CCc2ccccc2C3=O)cc1 ) reads > 100 µM

response.value for Nc1ncnc2c1c(-c1ccc(Oc3ccccc3)cc1)nn2C[C@@H]1SSC[C@@H]1O (field: TGI) = 1.11 µM

// field: TGI; key: CCCNC(=O)CCC(C)[C@H]1CCC2C3C(C[C@H](OC(C)=O)[C@@]21C)[C@@]1(C)CCC2(C[C@H]1C[C@H]3OC(C)=O)OOC1(CCCCC1)OO2 (stereo partly specified) ; value = 3.52 µM

According to the records, this compound COc1ccc(-c2c3ccccc3c(-c3ccc(OCCCCCBr)cc3)c3ccccc23)cc1 displays TGI of > 100 µM

----------
Tested on: PC-3 prostate
TEST_SUMMARY: NCI tumour cell line growth inhibition, 48 h; in the data active means GI50 below about 0.43 µM; inactive means the rest
Permitted responses: active, inactive

Reference set (6 entries):
- COMPOUND: "Cc1ccc(-n2c3c(c4c(CN5CCOCC5)c(O)ccc42)CCc2ccccc2C3=O)cc1"
  CATEGORY: "inactive"
- COMPOUND: "CN(C)C(=O)SC1=C(c2c(Cl)cccc2Cl)C(=O)c2ccccc21"
  CATEGORY: "inactive"
- COMPOUND: "Cc1n(Cc2ccc3ccccc3c2)c(Cl)c(Cl)[n+]1Cc1ccc2ccccc2c1"
  CATEGORY: "inactive"
- COMPOUND: "CCc1cccc(CC)c1/C=C/c1cncc(C(=O)NC)c1"
  CATEGORY: "inactive"
- COMPOUND: "COc1ccc(C2ONC3=NCCN32)cc1 (stereo not given)"
  CATEGORY: "inactive"
- COMPOUND: "CC1(C)C2CCC13C(=O)C1OC3(C2)C2C(=O)c3c(O)cccc3C(=O)C12 (stereo not given)"
  CATEGORY: "inactive"

Given CN(C)CCCC1(c2ccc(F)cc2)OCc2cc(-c3cncc4ccccc34)ccc21 (stereo not given) , state the outcome it received in this test.
inactive

----------
System: TK-10 renal
TEST_SUMMARY: NCI tumour cell line growth inhibition, 48 h
REPORTED_METRIC: TGI

- COMPOUND: "c1ccc(NC[Si]23OCCN(CCO2)CCO3)cc1"
  REPORTED_METRIC: "TGI"
  OBSERVED_RESULT: "> 100 µM"
- COMPOUND: "Cc1cc(NC(=O)NC(=O)c2ccccc2N(C)C)ccc1Oc1ncc(Br)cn1"
  REPORTED_METRIC: "TGI"
  OBSERVED_RESULT: "> 68.1 µM"
- COMPOUND: "C1=C2CNCC3=Cc4ccc5ccccc5c4OC23Oc2c1ccc1ccccc21"
  REPORTED_METRIC: "TGI"
  OBSERVED_RESULT: "27.4 µM"
- COMPOUND: "COc1ccc(C2=C(OC(=O)N(C)C)c3cccn3-c3cc(Cl)ccc3S2)cc1"
  REPORTED_METRIC: "TGI"
  OBSERVED_RESULT: "> 10 µM"
- COMPOUND: "CC[P+]1(CC)CCCC1"
  REPORTED_METRIC: "TGI"
  OBSERVED_RESULT: "> 100 µM"

Entry O=c1oc2ccc(Cl)cc2cc1-c1cn2ccsc2n1 : TGI on TK-10 renal = > 100 µM

Case CCCCCCOc1ccc(C(=N)N(CCCC)CCCC)c2ccccc12 , TK-10 renal, TGI recorded as 3.14 µM

Case COc1ccc2c(c1)nc1n2C(c2ccc(F)cc2)SC1 (stereo unspecified) , TK-10 renal, TGI recorded as > 100 µM

----------
Test system: K-562 leukemia
TEST_SUMMARY: NCI tumour cell line growth inhibition, 48 h
Overview of recorded TGI for various compounds

Below, each entry is followed by its recorded TGI result.
- COMPOUND: "O=CNNC(=O)Nc1ccc(Cl)cc1"
  OBSERVED_RESULT: "> 100 µM"
- COMPOUND: "Nc1ncc(/C=N/O)c(NCC2(CO)CC(CCc3ccccc3)C2)n1 (centres undefined)"
  OBSERVED_RESULT: "31.7 µM"
- COMPOUND: "CCOC1=C2NC(Cc3ccc(F)cc3)=NC2C(=O)c2ccccc21 (centres undefined)"
  OBSERVED_RESULT: "> 100 µM"
- COMPOUND: "COc1ccc(C2=C(OC(=O)N(C)C)c3cccn3-c3cc(Cl)ccc3S2)cc1"
  OBSERVED_RESULT: "> 10 µM"

Looking up CC(=O)c1ccc(NC(=O)CSc2nc(C)nc3c2sc(=S)n3-c2ccccc2)cc1 , I see its TGI listed as > 10 µM

Record O=C1OI(C#Cc2ccccc2)c2ccccc21 , field TGI: 6.7 µM

Form: compound = CC(=O)O[C@H]1C(=O)N(c2cc3c4ccccc4ccc3c3ccccc23)[C@@H]1c1ccccc1 ; TGI = > 100 µM

Just so you know, measured TGI for CC1=C(C(=O)CC(=O)C(=O)NC2C3CC4CC(C3)CC2C4)Sc2ccccc2N1 (centres undefined) came out at > 100 µM

For record CC[C@H](C)[C@H](NC(=O)[C@H]1CCCCN1C)C(=O)N(C)[C@H](C[C@@H](OC(C)=O)c1nc(C(=O)N[C@@H](Cc2ccccc2)C[C@H](C)C(=O)OC)cs1)C(C)C the listed TGI is > 25 µM

The compound listed as O=C(OCc1ccccc1C1CSCSC1)c1cc(C(=O)OCc2ccccc2C2CSCSC2)c(C(=O)OCc2ccccc2C2CSCSC2)cc1C(=O)OCc1ccccc1C1CSCSC1 has a reported TGI of > 100 µM

For this compound ( COc1ccc2c(c1)nc1n2C(c2ccc(F)cc2)SC1 (centres undefined) ), measured TGI is > 100 µM

Please fill in: TGI reported for NC(N)=N/N=C/c1c(-c2ccc(Cl)c([N+](=O)[O-])c2)nc2n1CCS2 = 16.6 µM

Looking up COc1cc([C@H]2c3[nH]c4ccccc4c3C[C@H]3COC(=O)N32)cc(OC)c1O , I see its TGI listed as > 90.3 µM

TGI in this record for Cc1cc([N+](=O)[O-])c(S(=O)(=O)c2ccccc2)c([N+](=O)[O-])c1 : > 100 µM

Quick note, TGI for COC(=O)c1cc2c3c(ccc2[nH]1)N(C(=O)c1cc2c4c(ccc2[nH]1)N(C(=O)c1cc2c5c(ccc2[nH]1)N(C(N)=O)CC5)CC4)CC3 landed at > 100 µM

The reported value for COC(=O)C(C(=O)C(=O)NC1Nc2ccc(C)cc2S1)c1nc2ccc(Cl)cc2[nH]c1=O (centres undefined) in terms of TGI is > 100 µM

Item: CCCCCCOP(=O)(OCCCCCC)OC(C(=O)OC)C(F)(F)F (centres undefined) | TGI: > 100 µM

Sure, the documented TGI for CC(C)(C)CC(C)(C)c1ccc(OCCOCC[N+](C)(C)Cc2ccccc2)cc1 is 15.7 µM

Form: compound = C/C(=N/O)c1ccc2c(c1)C(=NO)c1cc(/C(C)=N/O)ccc1-2 ; TGI = > 100 µM

The compound CC/C(Cl)=N\OC(=O)Nc1ccc(F)cc1F showed TGI equal to 2.34 µM

TGI recorded for this compound, CCCCCCCCCCCCCCCCOCC(Cl)COP(=O)(O)OP(=O)(O)OCC1OC(n2cnc3c(N)ncnc32)C(O)C1O (centres undefined) , is > 100 µM

CC(c1ccccc1)N1CC(C)(c2ccccc2)N(O)C(c2ccccc2)C1C (centres undefined) has a reported TGI of > 100 µM

For reference, reported TGI for NC(=O)C1=CC2C3C=CC2(O)C(=O)OC3O1 (centres undefined) stands at > 100 µM
